- Experimental details: splicing luciferase reporter signal modulators, primary screen, spliceosome inhibition project, cell-based, HEK293, splice +/- reporter (AID 1101);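 also: HEK293 cells carrying a splicing-competent luciferase reporter gene; test concentration not given here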
- Stated conditions: luminescence, 24 h, higher = more signal, called active from +8 up or from −8 down
Entries and their z-score values follow.
Keep it simple and answer with nothing but the number.

Please review the entries below; each comes with its answer.
{"columns": ["Compound", "Endpoint label", "Val"],
 "data": [
  ["CN1C(=O)[C@]2(CCS(=O)(=O)c3ccccc3)N=C(c3ccc(OCCCO)cc3)O[C@@H]2c2ccccc21", "z-score", -0.674],
  ["CC(C)C[C@@H]1NC(=O)[C@H]2C[C@@H](C(=O)NCCCCCCNC(=O)CS)[C@@H](c3ccc(O)cc3)N2C1=O", "z-score", -0.0594]
]}

## Input Data request, read-out z-score, for COC(=O)C1(CC(C)C)C=C2C(=C(C(C)C)C(=O)C2C)CN1 (configuration not stated)
## Output 1.97

## Input Please give the result for COC(=O)C(CC#Cc1ccc2c(c1)[C@]1(C(=O)N2)[C@H](c2ccc(O)cc2)N2[C@H](c3ccccc3)[C@H](c3ccccc3)OC(=O)[C@H]2[C@@H]1C(=O)N1CCc2cc(OC)c(OC)cc2C1)C(=O)OC too.
## Output -0.541

## Input [N-]=[N+]=NCc1ccccc1[C@@H]1OC(c2ccc(OCCCO)cc2)=N[C@]1(Cc1ccccc1)C(=O)NCc1ccccc1 , same question.
## Output -1.29

## Input Would you mind doing C[N+](C)(C)CCCC[C@@H]1NC(=O)[C@H]2C[C@@H](C(=O)NCCCCCNC(=O)CS)[C@@H](c3ccc(O)cc3)N2C1=O as well?
## Output -0.744

## Input Likewise for CO[C@H]1O[C@H](CO)[C@@H](OC(=O)Nc2ccc3c(c2)OCO3)[C@@H]2OC(=O)[C@@H](Cc3ccccc3)C/C=C/C[C@H](Cc3ccccc3)C(=O)O[C@@H]12 ?
## Output 0.216

## Input Same question, COc1ccc([Si](C)(C)[C@H]2[C@H](CCO)O[C@@]3(C(=O)N(Cc4ccc(N5CCOC5=O)cc4)c4ccccc43)[C@@H]2C)cc1 this time
## Output -1.15

## Input # repeat for COCCOC(=O)N1C(=O)[C@@]2(c3cc(C#CCC(C(=O)OC)C(=O)OC)ccc31)[C@H](C(N)=O)[C@H]1C(=O)O[C@H](c3ccccc3)[C@H](c3ccccc3)N1[C@@H]2c1ccc(OCCO)cc1
## Output -0.517

###

Listed compounds paired with reported z-score
- Experimental details: cell viability in Huh7 cells, primary screen, cytotoxicity control for HCV replication inhibitor project, CellTiter-Glo luminescence, basal, 48 h (AID 1143);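 also: Huh7 hepatoma cells carrying a hepatitis C replication reporter with no stimulus; test concentration not given here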
- Stated conditions: Huh7 HCV replicon, higher = more signal, called active from +8 up or from −8 down
# print the numeric value only

Consider the reported z-score for these compounds:
{"columns": ["Compound", "z-score"],
 "data": [
  ["O=C1C2C=CC(C(O)C(c3ccccc3)c3ccccc3)N(Nc3ccccc3)C2C(=O)N1c1ccccc1 (stereo not drawn)", -0.374],
  ["NCCCC[C@@H]1NC(=O)[C@H]2C[C@@H](C(=O)O)[C@@H](c3cccc(OCCO)c3)N2C1=O", 0.0458]
]}

Query compound follows.
## Input Need z-score, item [N-]=[N+]=NCc1ccccc1C[C@]1(C(=O)O)COC(c2ccc(OCCCO)cc2)=N1
## Output 0.432

###

- Experimental details: compound binding in COS7 lysate, probe aLAP1, primary screen, cell lysate, small-molecule microarray (AID 1124);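 also: lysate comes from COS7 cells expressing LAP1 and is applied at 0.3 µg/mL; score merges spot fluorescence near 667 nm with signal-to-noise over triplicate slides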
- Stated conditions: probe aLAP1, fluorescence, higher = more signal
Endpoint label: composite z-score

{"columns": ["Compound", "Val"],
 "data": [
  ["COCCOC(=O)N1C(=O)[C@@]2(c3cc(C#CCCO)ccc31)[C@H](C(=O)N1CCN(c3ncccn3)CC1)[C@H]1C(=O)O[C@H](c3ccccc3)[C@H](c3ccccc3)N1[C@@H]2c1ccc(O)cc1", 0.298],
  ["[N-]=[N+]=NCc1ccccc1C[C@]1(C(=O)N2CCCCC2)N=C(c2ccc(OCCCO)cc2)O[C@H]1c1ccccc1", -0.0174],
  ["C=C(/C(=C/C[C@H](OC(=O)c1ccncc1)c1ccccc1OCCO)c1cc(C(=O)OC)ccc1OC)C(C)C", -0.0576]
]}

## Input Value lookup for composite z-score; key = COCCCN1C(=O)[C@@]2(Cc3ccccc31)c1ccccc1C(=O)N(Cc1ccccc1OC)[C@H]2c1ccc(CO)cc1
## Output 1.34

## Input What would you report for C[N+](C)(C)CCCCCCNC(=O)[C@H]1C[C@H]2C(=O)NCC(=O)N2[C@H]1c1cccc(OCCO)c1 ?
## Output 0.662

###

- System: Sam68 (KHDRBS1)
- Experimental details: Sam68 small-molecule binders, primary screen, biochemical, small-molecule microarray, 635 nm fluorescence (AID 1125);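 also: score merges 667 nm channel intensity with signal to noise over triplicate slides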
- Stated conditions: small-molecule microarray binding, higher = more signal
# composite z-score values compiled below
Reply with the value as a number alone.

{"columns": ["Compound", "Val"],
 "data": [
  ["CCCCC(O)C1C=CC2C(=O)N(C)C(=O)C2N1Nc1ccccc1 (stereo not drawn)", 1.29],
  ["COc1ccc(NC(=O)O[C@H]2[C@H](OC(=O)Nc3ccc4c(c3)OCO4)[C@H](OC(=O)Nc3ccc4c(c3)OCO4)[C@@H](OC)O[C@@H]2CO)cc1", 1.26]
]}

# evaluate next
## Input Looking for the measured composite z-score of CCC[C@@H]1C=C(C(=O)OCC)[C@H](c2ccccc2)N1S(=O)(=O)c1ccc(C)cc1 , can you help?
## Output 1.3

###

- Test system: Human papillomavirus type 1a protein E7 (residues 44-93)
- Experimental details: HPV1a E7 fragment binders on microarrays, primary screen, biochemical, small-molecule microarray, residues 44-93, 635 nm fluorescence (AID 1108);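 also: E7 fragment applied at 1 µg/mL in TBST for 1 h at 4 C; score combines spot fluorescence with its signal to noise ratio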
- Stated conditions: small-molecule microarray binding, fluorescence 635 nm; higher = more signal
Endpoint label: composite z-score
Reply: number alone, nothing else.

{"columns": ["Compound", "Val"],
 "data": [
  ["CC1(C)OC[C@@]23C=C(Br)[C@@H](C[C@H]12)[C@@]1(CO1)C3=O", 0.223]
]}

## Input For COCCOC(=O)N1C(=O)[C@@]2(c3cc(C#CCNC(N)=O)ccc31)[C@H](C(=O)NC[C@H](O)c1ccccc1)[C@H]1C(=O)O[C@H](c3ccccc3)[C@H](c3ccccc3)N1[C@@H]2c1ccc(OCCO)cc1 , what is its reported composite z-score?
## Output 1.11

## Input What do you get for C=CCOC(=O)[C@H]1[C@@H]2C(=O)O[C@@H](c3ccccc3)[C@@H](c3ccccc3)N2[C@@H](c2ccc(OCCOC(=O)[C@@H]3C[C@@H]4C(=O)N[C@@H](CC(C)C)C(=O)N4[C@@H]3c3ccc(O)cc3)cc2)[C@]12C(=O)Nc1ccc(I)cc12 ?
## Output 1.37

## Input Next record, please: CCCC=C(CCC)[C@@H](NC(=O)c1ccco1)c1ccc(C(=O)OC)cc1
## Output 1.43

## Input # repeat for C[C@H]1NC(=O)C([C@@H](C)OCc2ccccc2)NC(=O)[C@@]23C(=O)N[C@@H](Cc4ccccc4)C2[C@H](C)[C@@]2(C)O[C@H]2C3/C=C/C/C=C\CNC1=O (some centres not stated)
## Output -0.037

## Input // same read-out, input: NC(=O)NCC#Cc1ccc2c(c1)[C@]1(C(=O)N2)[C@H](C(=O)Nc2nc3ccccc3s2)[C@H]2C(=O)O[C@H](c3ccccc3)[C@H](c3ccccc3)N2[C@@H]1c1ccc(OCCO)cc1
## Output 0.537

## Input Next up: C=CC(CO)NC(=O)OCC1c2ccccc2-c2ccccc21 (configuration not stated)
## Output 0.0077

###

- Tested system: Follistatin (Homo sapiens) (UniProt P19883)
- Sequence (P19883 whole entry, looked up): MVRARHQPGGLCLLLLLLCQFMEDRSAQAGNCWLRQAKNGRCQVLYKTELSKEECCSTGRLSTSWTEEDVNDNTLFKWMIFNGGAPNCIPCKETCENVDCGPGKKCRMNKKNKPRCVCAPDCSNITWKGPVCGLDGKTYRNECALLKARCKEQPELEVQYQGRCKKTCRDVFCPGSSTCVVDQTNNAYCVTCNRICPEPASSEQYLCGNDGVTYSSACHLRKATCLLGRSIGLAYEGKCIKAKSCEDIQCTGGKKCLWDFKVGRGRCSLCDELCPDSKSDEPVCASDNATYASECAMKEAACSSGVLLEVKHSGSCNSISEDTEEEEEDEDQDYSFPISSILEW
- Experimental details: follistatin binders on small-molecule microarrays, primary screen, biochemical, small-molecule microarray, 635/667 nm fluorescence (AID 1132)
- Stated conditions: FST binding, 635 nm fluorescence, higher = more signal
Endpoint label: composite z-score
// print number alone

Example compounds with recorded composite z-score:
{"columns": ["Compound", "Tested system", "composite z-score"],
 "data": [
  ["Cc1ccccc1C(O)C1C=CC2C(=O)N(c3ccccc3)C(=O)C2N1Nc1ccccc1F (configuration not stated)", "Follistatin (Homo sapiens) (UniProt P19883)", 1.01],
  ["CCCCNC(=O)c1ccc(C#C[Si](C)(C)C)c(OC(C)=O)c1", "Follistatin (Homo sapiens) (UniProt P19883)", 0.389],
  ["CO[C@H]1O[C@H](CO)[C@@H](OC(=O)Nc2ccc3c(c2)OCO3)[C@@H]2OC(=O)[C@@H](Cc3ccccc3)C/C=C/C[C@H](Cc3ccccc3)C(=O)O[C@@H]12", "Follistatin (Homo sapiens) (UniProt P19883)", 0.974],
  ["COC(=O)c1ccc([C@H](NC(=O)c2ccccc2)[C@]2(C)C[C@H]2C2CCCCC2)cc1", "Follistatin (Homo sapiens) (UniProt P19883)", 0.412],
  ["CC(C)C(=C=CC[C@@H](O)c1cccc(OCCO)c1)CCO", "Follistatin (Homo sapiens) (UniProt P19883)", 1.14],
  ["CC(c1ccccc1)C(O)C1C=CC2C(=O)N(c3ccccc3)C(=O)C2N1Nc1ccc(C#N)cc1 (configuration not stated)", "Follistatin (Homo sapiens) (UniProt P19883)", 1.12]
]}

Now consider the entry below.
## Input Which composite z-score reading was recorded for the compound C=CCC(OC(C)=O)[C@@H]1[C@@H](N(Cc2ccc(-c3cccc(C(F)(F)F)c3)o2)C(=O)c2cccc3ccccc23)c2cc(OCCCO)ccc2N1C(=O)c1ccc2ccccc2c1 (some centres not stated) ?
## Output 0.839
